- ASSAY_INFO: Human liver microsomal Clint
- Type: in vitro ADME
- TEST_PARAMETERS: human liver microsomes, intrinsic clearance; read-out: HLM Clint
MEASUREMENT_LABEL: microsomal CLint (µL/min/mg)

A = COc1ccc(NC(=O)c2ccc(-c3cnc(N4CCN(C)CC4)nc3)cc2O)cc1Cl
B = CN1CCCN(c2ncc(-c3ccc4c(Nc5ccncn5)ccnc4c3)cn2)CC1
C = COc1ccc(NC(=O)c2ccc(-c3cccc(N4CCOCC4)c3)cc2O)cc1Cl
Query block: Which order do these fall in by microsomal CLint? Give them lowest to highest. Answer with the labels in sequence, matching the requested order.
Result block: C, A, B
